# Tested on: mESC Bmi1-luciferase reporter, firefly/renilla ratio, 24 h
# Procedure details: compounds raising Bmi1 reporter signal – mouse embryonic stem cells, luciferase, cherry-pick, esBAF inhibitor project, dose response (AID 651717);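 also: luciferase knocked into Bmi1 locus with EF-1a renilla as cell number control; rising ratio signals esBAF inhibition which derepresses Bmi1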
I'd appreciate it if you could supply AC40 values for the items below.

- Molecule: "Cc1cc(NC(=O)Nc2ccc3c(ccn3C)c2)sn1"
  AC40: "5.14 µM"
- Molecule: "CCc1ccc2cc3c(cc2n1)C(=O)c1ccccc1-3"
  AC40: "2.32 µM"
- Molecule: "Cc1ccc(SCCN2CCC(C)CCC2=O)cc1 (stereo unspecified)"
  AC40: "2.74 µM"
- Molecule: "C/C(=N\\O)c1ccc2c3ccccc3n(C)c2c1"
  AC40: "3.32 µM"
- Molecule: "O=c1c2ccccc2nnn1CSc1nnnn1-c1ccccc1"
  AC40: "9.13 µM"

Kindly give each listed record's AC40.
1. Cc1csc(=O)n1CC(=O)OCc1cccc2ccccc12
2. CN(C(=O)c1ccc2c(Cl)c3c(nc2c1)CCC3)c1ccccc1

Found:
1. 11.4 µM
2. 6.63 µM

Hello, I would appreciate it if you could give AC40 for each entry below.
1. Cc1ccc(C(=O)CN2C(=O)NC3(CCCCCC3)C2=O)c(C)c1
2. CSc1ccccc1NC(=O)c1ccc(N2CCCC2=O)cc1
3. CCCNC(=O)Nc1ccc2c(c1)C(=O)N(C)C[C@H](OC)[C@@H](C)CN(Cc1ccc(-c3ccccn3)cc1)[C@H](C)CO2
4. Cc1ccc(OCc2cc(C(=O)N3CCN(C4CCCCC4)CC3)no2)cc1C
5. Fc1ccc2nc(-c3ccccc3)ccc2c1
6. Cc1csc(NC(=O)Cc2ccc(F)cc2)n1
7. COC(=O)CN(C)C(=O)c1ccc2nc(Cc3cccc(Cl)c3)oc2c1
8. COc1ccc(Nc2ccc3ccccc3c2)cc1

Found:
1: 1.63 µM; 2: 2.01 µM; 3: 1.73 µM; 4: 10 µM; 5: 1.14 µM; 6: 7.58 µM; 7: 2.4 µM; 8: 1.13 µM

State recorded AC40 for all listed molecules.
1. Cc1c(C(=O)NCc2cccnc2)sc2nc(-c3ccc(F)cc3)cn12
2. Fc1ccccc1NC(=S)N1CCC(c2ccccc2)C1 (stereo unspecified)
3. CCN(CC)C(=O)Oc1ccc2c(=O)c(-c3ccc(OC)cc3)coc2c1
4. O=C(c1ccc2ccccc2c1)N1CCc2ccccc21

Found:
1. 12.2 µM
2. 0.517 µM
3. 3.7 µM
4. 8.41 µM

* * *

# Test system: mESC Bmi1-luciferase reporter, firefly/renilla ratio, 24 h
# Procedure details: compounds raising Bmi1 reporter signal – mouse embryonic stem cells, luciferase, cherry-pick, esBAF inhibitor project, dose response (AID 651717)
Readout kind: AC40

- Compound: "Cc1ccc(OCc2cc(C(=O)NC(C)Cc3cccnc3)no2)cc1C (centres undefined)"
  Reported result: "1800 nM"
- Compound: "Cc1csc(N/N=C/c2ccccc2F)n1"
  Reported result: "1010 nM"

I need AC40 for every entry listed below, if you could help.
1. O=C(Nc1ccc2ccccc2c1)c1cccc2ccccc12
2. Cc1ccc(S(=O)(=O)N(C)CC(=O)Nc2cc(C)ccn2)cc1

Found:
1: 829 nM; 2: 9840 nM

* * *

Answer each item with its documented AC40.
# Test system: mESC Bmi1-luciferase reporter, firefly/renilla ratio, 24 h
# Procedure details: compounds raising Bmi1 reporter signal – mouse embryonic stem cells, luciferase, cherry-pick, esBAF inhibitor project, dose response (AID 651717)

Example entries and their recorded answers appear below.
- Compound: "COc1ccc(-n2nc(C(=O)NCC(=O)N3CCN(c4ccccc4F)CC3)c3ccccc3c2=O)cc1"
  AC40: "1.22 µM"
- Compound: "O=c1c2ccccc2sc2ccccc12"
  AC40: "2.41 µM"

The following compounds each have a reported value; give each one's AC40.
1. O=c1c2ccccc2oc2cc(-c3ccc4cc[nH]c4c3)ccc12
2. CCOc1ccc(N=C(/C(C(=O)C(=O)N2CCOCC2)=C(\O)c2ccccc2)c2ccccc2)cc1
3. CN(C)c1ncnc2c1ncn2-c1ccccc1

Found:
["1.46 µM", "11.2 µM", "9.34 µM"]

Parameters: items (list). Returns: AC40 for each item.
1. CO[C@@H]1CN(C)C(=O)c2ccc(NC(=O)Nc3ccc4c(c3)OCO4)cc2OC[C@H](C)NC[C@H]1C
2. COc1cccc2cc(C(=O)N3CCc4ccccc4C3)c(=O)oc12
3. COc1ccc(NC(=O)Nc2cc(C)ccc2F)cc1

Found:
1: 6.56 µM; 2: 26.9 µM; 3: 0.738 µM

Below are 7 compounds. Give each one its AC40.
1. COc1cccc2sc(NC(=O)c3ccc(Br)s3)nc12
2. C/C(=C\C(=O)c1cccnc1)Nc1ccc(C)c(C)c1
3. Oc1cccc(/C=N/N2CCCCC2)c1O
4. CC(O)(c1ccccc1)c1nc(-c2cccc(C(=O)O)c2)cs1 (stereo not given)
5. COc1cc(C)ccc1OCc1cc(C(=O)N2CCN(C3CCCCC3)CC2)no1
6. CNC(=O)c1ccc(-c2ccccc2)s1
7. CCN(CC)C(=O)c1nc(-c2cccc3ccccc23)no1

Found:
1: 1.85 µM; 2: 3.36 µM; 3: 3.47 µM; 4: 4.13 µM; 5: 5.3 µM; 6: 5.62 µM; 7: 13.1 µM

* * *

Answer each item with its documented AC40.
# Test system: mESC Bmi1-luciferase reporter, firefly/renilla ratio, 24 h
# Procedure details: compounds raising Bmi1 reporter signal – mouse embryonic stem cells, luciferase, cherry-pick, esBAF inhibitor project, dose response (AID 651717);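 also: luciferase knocked into Bmi1 locus with EF-1a renilla as cell number control; rising ratio signals esBAF inhibition which derepresses Bmi1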

Illustrative cases are given below, each with its answer.
- Molecule: "Cc1ccn2c(CC(C)(C)C)c(-c3ccc(F)cc3)nc2c1"
  AC40: "1.38 µM"
- Molecule: "CC1CCCN(C(=O)c2cc3c(=O)n4ccccc4nc3s2)C1 (stereo not given)"
  AC40: "14.1 µM"

Can you give me AC40 for all of these, one by one?
1. Cn1c2nc3ccccc3c-2nc2ccccc21
2. Cc1cc(C)cc(N(CC(=O)Nc2ccc(-c3nc4ccc(C)cc4s3)cc2)S(C)(=O)=O)c1
3. Cc1ccc2c(CN(C)Cc3cccc(F)c3)cc(=O)oc2c1
4. Cc1ccnc(NC(=O)CCCc2ccccc2)c1
5. O=C(Cn1c(/C=C/c2ccccc2)nc2ccccc21)Nc1ccc(F)cc1
6. COc1ccc2c(c1OC)C(=O)N1c3ccccc3SC21 (stereo not given)
7. COc1ccc2nc3sc(C(=O)NCCN4CCc5ccccc5C4)cc3cc2c1
8. CCCN1C[C@@H](C)[C@H](OC)CN(C)C(=O)c2cc(NC(=O)c3ccccc3F)ccc2OC[C@H]1C

Found:
4.33 µM
4.11 µM
2.23 µM
5.74 µM
2.78 µM
0.438 µM
5.77 µM
5.77 µM

* * *

# Test system: mESC Bmi1-luciferase reporter, firefly/renilla ratio, 24 h
# Procedure details: compounds raising Bmi1 reporter signal – mouse embryonic stem cells, luciferase, cherry-pick, esBAF inhibitor project, dose response (AID 651717);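 also: luciferase knocked into Bmi1 locus with EF-1a renilla as cell number control; rising ratio signals esBAF inhibition which derepresses Bmi1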
Readout kind: AC40

Consider the reported AC40 for these molecules:
- Molecule: "NCC(=O)c1ccccc1"
  Readout kind: "AC40"
  Reported result: "23 µM"
- Molecule: "Cc1ccccc1C(=O)c1cccn1CC(=O)NCc1ccccc1Cl"
  Readout kind: "AC40"
  Reported result: "9.17 µM"
- Molecule: "O=C1Nc2ccccc2N=C(c2ccc3c(c2)OCO3)C1N(C(=O)c1ccc2ccccc2c1)C1CC1 (centres undefined)"
  Readout kind: "AC40"
  Reported result: "1.26 µM"

Record AC40 per entry; entries follow.
1. COc1ccc(C(=O)/C=C(\C)Nc2ccc3c(c2)OCO3)cc1
2. O=C(O)c1ccc2noc(-c3ccccc3)c2c1
3. COc1cccc(-c2cc(C(=O)NC3CCCCC3)no2)c1

Found:
["1.85 µM", "1.54 µM", "1.71 µM"]

* * *

# Tested on: mESC Bmi1-luciferase reporter, firefly/renilla ratio, 24 h
# Procedure details: compounds raising Bmi1 reporter signal – mouse embryonic stem cells, luciferase, cherry-pick, esBAF inhibitor project, dose response (AID 651717);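 also: luciferase knocked into Bmi1 locus with EF-1a renilla as cell number control; rising ratio signals esBAF inhibition which derepresses Bmi1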
Readout kind: AC40

Field: example entries. Status: answers known.
- Smiles text: "COc1ccc(-c2coc3cc(OC(C)=O)ccc3c2=S)cc1"
  Readout kind: "AC40"
  Reported result: "0.794 µM"
- Smiles text: "O=C(c1c(Cl)nc2sccn12)N(C(=O)c1c(Cl)nc2sccn12)c1ccc(Cl)cn1"
  Readout kind: "AC40"
  Reported result: "0.693 µM"
- Smiles text: "N#Cc1c(/N=C/c2cccs2)sc2c1CCC2"
  Readout kind: "AC40"
  Reported result: "0.897 µM"
- Smiles text: "Cc1cccc(NC(=O)CCCc2ccccc2)c1"
  Readout kind: "AC40"
  Reported result: "9.57 µM"
- Smiles text: "FC(F)(F)c1ccccc1Cc1c(-c2cccc(Br)c2)nc2c3ccccc3ccn12"
  Readout kind: "AC40"
  Reported result: "9.57 µM"

Lookup: Look at this molecule and give its reported AC40. O=C1/C(=C/c2cccc3ccccc23)CCCc2ccccc21
Found: 5.34 µM
